# target.under.test: internal research reagent human Fab (hFab)
# experiment: SPR (Biacore T200), mAb captured by anti-rabbit mAb on CM5, antigen 80-0 nM, 1:1 fit
endpoint.name: koff (s⁻¹)
Give your result in s⁻¹ as a bare value.

In the examples that follow, each entry is paired with its recorded koff.
rabbit anti-human IgG monoclonal antibody clone 16F5 (antibody, V domains shown) VH: QQQLEESGGGLVKPGGTLTLTCKASGIDFSNYYYMCWVRQAPGKGLELIACIYTGSSGSTWYATWAKGRFTISKTSSTTVTLQMTSLTAADTATYFCARDRDVGSLYDSLDLWGQGTLVTVSP VL: AYDMTQTPASVEAAVGGTVTINCQASQSINNWLSWYQQKPGQRPKLLIYQASTLASGVSSRFKGSGSGTHFTLTISDLECADAATYYCQQGWSIDDIDNAFGGGTEVVVKG; 0.00584
rabbit anti-human IgG monoclonal antibody clone 9E6 (antibody, V domains shown) VH: QSLEESGGDLVKPGASLTLTCKASGFDFSSSYYMCWVRQAPGRLEWIACIYGGGLSNTYYAGWAKGRFTISKTSSTTVTLQMTSLTVADTATYFCARDAGTSGDYLNLWGPGTLVTVSS VL: AVVMTQTASPVSGAVGGTVTINCQASQSISSSYLSWYQQKPGQPPKLLIYGASTLASGVPSRFKGSGSGTQFTLTISGVQCDDAATYYCAYDAYRLSSPDNIFGGGTEVVVKG; 0.00603
rabbit anti-human IgG monoclonal antibody clone 11G5 (antibody, V domains shown) VH: QSLEESGGDLVKPGASLTLTCTASGFSFSSSYYMCWVRQAPGKRLEWIACIYGGGLSNTYYAGWAKGRFTISKTSSTTVTLQMTSLTAADTATYFCARDATSGDYLNLWGPGTLVTVSS VL: AVVMTQTASPVSGAVGGTVTINCQASQSISASALSWYQQKPGQPPKLLIYAASTLESGVPSRFKGSGSGTQFTLTISGVQCDDAATYYCAYDGYRLSSADNIFGGGTEVVVKG; 0.000531

Okay, next one:
// query koff value for entry rabbit anti-human IgG monoclonal antibody clone 2C5 (antibody, V domains shown) VH: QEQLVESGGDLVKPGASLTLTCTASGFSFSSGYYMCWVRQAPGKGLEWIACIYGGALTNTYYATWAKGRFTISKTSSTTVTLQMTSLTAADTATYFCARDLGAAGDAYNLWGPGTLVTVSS VL: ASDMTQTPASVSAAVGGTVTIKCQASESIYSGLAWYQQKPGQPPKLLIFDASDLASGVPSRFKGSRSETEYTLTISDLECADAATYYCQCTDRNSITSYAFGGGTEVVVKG
0.00146
